- Read-out: Cytochrome P450 2C19 (Homo sapiens)
- Test Name: LTEA_HepaRG_CYP2C19: Life Technologies and Expression Analysis (LTEA) Assay for CYP2C19 using HepaRG (AID 2283482)
- Test Context: mRNA level, 48 h; actives raise or lower the signal
The source made the active and inactive calls. How the source made its calls: active means hit-call score of the fitted dose curve at least 0.9, where 1 is the maximum; inactive means score below 0.9.
Metric Name: AC50

// worked examples, AC50 included
CS(=O)(=O)c1ccc(C(=O)C2C(=O)CCCC2=O)c([N+](=O)[O-])c1 ... inactive
Nc1cnn(-c2ccccc2)c(=O)c1Cl ... inactive
COc1cc(OC)nc(NC(=O)NS(=O)(=O)c2ncccc2OCC(F)(F)F)n1 ... 16.3 µM (active)
CCCC(=NOCC)C1=C(O)CC(CC(C)SCC)CC1=O (configuration not stated) ... 29.6 µM (active)
CC(C)=CC1C(C(=O)OCc2coc(Cc3ccccc3)c2)C1(C)C (configuration not stated) ... 15.5 µM (active)
O=P(O)(O)CCCl ... 0.396 µM (active)
CCCCC(O)(Cn1cncn1)c1ccc(Cl)cc1Cl (configuration not stated) ... 83.2 µM (active)
CCNP(=S)(OC)O/C(C)=C/C(=O)OC(C)C (configuration not stated) ... 8.66 µM (active)
CC1(C)CCC(=Cc2ccc(Cl)cc2)C1(O)Cn1cncn1 (configuration not stated) ... 5.03 µM (active)
CCN(CC)c1nc(C)cc(OP(=S)(OC)OC)n1 ... 12.1 µM (active)

-- ask What value of AC50 has been recorded for this entry: OC(c1ccc(Cl)cc1)(c1ccc(Cl)cc1)C(Cl)(Cl)Cl
-- reply 85.2 µM (active)

-- ask Queued: O=c1n(Cl)c(=O)n(Cl)c(=O)n1Cl
-- reply inactive
